assay-method-text: Selectivity index, ratio of CC50 for cytotoxicity against dog MDCK cells to EC50 for antiviral activity against Influenza A virus H1N1 (A/PR/8/34) infected in MDCK cells assessed as reduction in virus titer treated 1 hr post viral infection followed by replacement with fresh medium with compounds and measured after 72 hrs by MTT assay
Assay type: toxicity, cell-based
run-conditions: read-out: Selectivity Index
measured-attribute: selectivity ratio at 72 h
Simply state the number, no unit and no words.

Example results:
{"chemical-structure": "C#CC1(NC(=O)/C(C)=C/C(=O)OC[C@]23CC[C@@H](C(=C)C)[C@@H]2[C@H]2CC[C@@H]4[C@@]5(C)CC[C@H](O)C(C)(C)[C@@H]5CC[C@@]4(C)[C@]2(C)CC3)CCCCC1", "reported-measurement": 2}
{"chemical-structure": "CCOC(=O)C1=C[C@@H](OC(CC)CC)[C@H](NC(C)=O)[C@@H](N)C1", "reported-measurement": 98.2}

Q. Can you look up the measured selectivity ratio at 72 h of C=C(C)[C@@H]1CC[C@]2(COC(=O)CSCC(=O)O)CC[C@]3(C)[C@H](CC[C@@H]4[C@@]5(C)CC[C@H](O)C(C)(C)[C@@H]5CC[C@]43C)[C@@H]12 for me?
A. 2

Reference source for all entries: ChEMBL document CHEMBL4831514
